Sourced from PubChem BioAssay AID2060485

test system: A375 multi-cell spheroids with HUVEC/MSC, viability; experiment: Anticancer human tumor A375 cell line growth inhibition [GQUAD]; conditions: curve of first compound; second compound 3.16 µM;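 note: spheroids exposed to compounds for seven days before readout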
value kind: IC50

So what's the measured IC50 for this one? CC(=O)O[C@H]1C(=O)[C@@]2(C)[C@H]([C@H](OC(=O)c3ccccc3)[C@]3(O)C[C@H](OC(=O)[C@H](O)[C@@H](NC(=O)c4ccccc4)c4ccccc4)C(C)=C1C3(C)C)[C@]1(OC(C)=O)CO[C@@H]1C[C@@H]2O + Cc1[nH]c2ccc(F)cc2c1-c1nc2c3cccnc3c3ncccc3c2[nH]1
< 0.0316 µM

---
So what's the measured IC50 for this one? C#Cc1c(F)ccc2cc(O)cc(-c3ncc4c(N5CC6CCC(C5)N6)nc(OCC56CCCN5CC(F)C6)nc4c3F)c12 (configuration not stated) + Cc1cnc(CNC(=O)c2c(=O)c3ccc(N4CCCN(C)CC4)nc3n3c2sc2ccccc23)cn1
< 0.0316 µM
